- test-system: T1, human CD71 extracellular domain (CD71-ECD) (human, UniProt P02786 89-760)
- T1 construct: also called hCD71; human CD71-ECD
- T1 sequence (P02786 89-760): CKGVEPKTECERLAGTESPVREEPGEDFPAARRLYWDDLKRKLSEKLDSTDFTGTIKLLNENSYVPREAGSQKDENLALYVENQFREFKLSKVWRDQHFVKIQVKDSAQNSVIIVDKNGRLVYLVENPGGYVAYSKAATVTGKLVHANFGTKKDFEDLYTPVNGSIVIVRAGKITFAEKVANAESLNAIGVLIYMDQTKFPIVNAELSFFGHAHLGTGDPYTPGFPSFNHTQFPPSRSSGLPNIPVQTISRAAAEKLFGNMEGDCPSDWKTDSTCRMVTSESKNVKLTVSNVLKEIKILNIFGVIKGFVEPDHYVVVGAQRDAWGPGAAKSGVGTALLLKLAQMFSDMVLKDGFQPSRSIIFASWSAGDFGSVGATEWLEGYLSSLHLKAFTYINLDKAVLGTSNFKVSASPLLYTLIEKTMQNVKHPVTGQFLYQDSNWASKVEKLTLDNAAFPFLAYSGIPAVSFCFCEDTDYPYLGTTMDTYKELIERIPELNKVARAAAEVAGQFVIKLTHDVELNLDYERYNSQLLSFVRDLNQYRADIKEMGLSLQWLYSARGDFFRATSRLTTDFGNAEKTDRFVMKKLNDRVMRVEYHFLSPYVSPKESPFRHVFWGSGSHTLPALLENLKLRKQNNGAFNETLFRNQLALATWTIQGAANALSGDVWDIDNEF
- experimental-protocol: primary ELISA, RLU ratio to HSA
metric-name: hCD71:HSA

| binder | metric-name | meas-value |
| --- | --- | --- |
| CD71-binding FN3 domain SEQ ID NO: 254 (designed binder) MSLPAPKNLVVSRVTEDSARLSWTAPDAAFDSFEIGYFENLYLGEAIVLWVPGSERSYDLTGLKPGTEYWVQIGGVKGGNWSAPLSAIFTT | hCD71:HSA | 289 |
| CD71-binding FN3 domain SEQ ID NO: 276 (designed binder) MSLPAPKNLVVSRVTEDSARLSWTAPDAAFDSFEIAYFELDYVGEAIVLTVPGSERSYDLTGLKPGTEYWVQIGGVKGGTWSGPLSAIFTI | hCD71:HSA | 62 |
| CD71-binding FN3 domain SEQ ID NO: 307 (designed binder) MSLPAPKNLVVSRVTEDSARLSWTAPDAAFNSFEIGYFENLYLGEAIVLTVPGSERSYDLTGLKPGTEYWVQIGGVKGGTFSAPLSAIFTT | hCD71:HSA | 50 |

1: CD71-binding FN3 domain SEQ ID NO: 299 (designed binder) MSLPAPKNLVVSRVTEDSARLSWTAPDAAFDSFEIAYFENLYLGEAIVLTVPGSERSYDLTGLKPGTEYWVQIGGVKGGNWSAPLSAIFTT
2: CD71-binding FN3 domain SEQ ID NO: 280 (designed binder) MSLPAPKNLVVSRVTEDSARLSWTALDAAFDSFEIGYFENLYLGEAIVLTVPGSERSYDLTGLKPGTEYWVQIGGVKGGNWSAPLSAIFTT
Asked: Please tell me which of the two, 1 or 2 , has the higher reported hCD71:HSA value. Pick one and reply with its label.
Given back: 1

A: CD71-binding FN3 domain SEQ ID NO: 265 (designed binder) MSLPAPKNLVVSRVTEDSARLSWTAPDAAFDSFFIGYLEPQPPGEAISLYVPGSERSYDLTGLKPGTEYNVTIQGVKGGFPSDPLVAHFTT
B: CD71-binding FN3 domain SEQ ID NO: 286 (designed binder) MSLPAPKNLVVSRVTEDSARLSWTAPDAAFDSFEIVYAEPVRFGEAIVLTVPGSERSYDLTGLKPGTEYWVQIGGVKGGEWSSPLSAIFTT
C: CD71-binding FN3 domain SEQ ID NO: 300 (designed binder) MSLPAPKNLVVSRVTEDSARLSWTAPDAAFDSFEIGYFEATPNGEAIVLTVPGSERSYDLTGLKPGTEYKVFIGGVKGGRWSKPLSAIFTT
Asked: Could you please order the items by hCD71:HSA, going from the lowest number to the highest? Use the labels to give the requested order.
Given back: B, C, A
(B: 131, C: 284, A: 409)

P: CD71-binding FN3 domain SEQ ID NO: 241 (designed binder) MSLPAPKNLVVSRVTEDSARLSWTAPDAAFDSFMIAYDEFIVWGEAVVLTVPGSERSYDLTGLKPGTEYLVEILGVKGGTISGPLSAIFTT
Q: CD71-binding FN3 domain SEQ ID NO: 236 (designed binder) MSLPAPKNLVVSRVTEDSARLSWTEPDAAFDSFEIGYFENLYLGEAIVLTVPGSERSYDLTGLKPGTEYWVQIGGVKGGNWSAPLSAIFTT
Asked: Select the item whose hCD71:HSA value is smaller, choosing between P and Q . Pick one and reply with its label.
Given back: Q
(Q: 101, P: 178)

A: CD71-binding FN3 domain SEQ ID NO: 294 (designed binder) MSLPAPKNLVVSRVTEDSARLSWTAPDAAFDSFFIGYLEPQPLGEAIHLFVPGSERSYDLTGLKPGTEYNVTIQGVKGGFPSEPLIASFTT
B: CD71-binding FN3 domain SEQ ID NO: 311 (designed binder) MSLPAPKNLVVSRVTEDSARLSWTAPDAAFDSFEIGYWENAYKGEAIVLTVPGSERSYDLTGLKPGTEYVVFIGGVKGGSWSNPLSAIFTT
C: CD71-binding FN3 domain SEQ ID NO: 305 (designed binder) MSLPAPKNLVVSRVTEDSARLSWTAPDAAFDSFEIAYFEQTYTGEAIVLTVPGSERSYDLTGLKPGTEYWVQIGGVKGGNWSAPLSAIFTT
D: CD71-binding FN3 domain SEQ ID NO: 237 (designed binder) MSLPAPKNLVVSRVTEDSARLSWTAPDAAFDSFEIAYFERTWFGEAIVLTVPGSERSYDLTGLKPGTEYWVQIGGVKGGDWSKPLSAIFTT
Asked: Could you please order the items by hCD71:HSA, going from the lowest number to the highest? Use the labels to give the requested order.
Given back: B, A, C, D
(B: 133, A: 215, C: 315, D: 535)
